# ASSAY_PROTOCOL: Inhibitory activity against Opioid receptor kappa1 binding to bovine striatal membrane
EXPERIMENTAL_READOUT: IC50 (nM)
One number for each entry, in nM.

CN1CC[C@]23c4c5ccc(O)c4O[C@H]2C(=O)CC[C@@]3(NC(=O)CSSCC(=O)N[C@@]23CCC(=O)[C@@H]4Oc6c(O)ccc7c6[C@@]42CCN(C)[C@@H]3C7)[C@H]1C5; 41

The measured IC50 associated with O=C(CSSCC(=O)N[C@@]12CCC(=O)[C@@H]3Oc4c(O)ccc5c4[C@@]31CCN(CC1CC1)[C@@H]2C5)N[C@@]12CCC(=O)[C@@H]3Oc4c(O)ccc5c4[C@@]31CCN(CC1CC1)[C@@H]2C5 reads 10
